Target: OccJ S91G (Agrobacterium tumefaciens, UniProt P0A4F8, S91G)
Construct: The mature LAO expression plasmid, LAO-Q122A, OccJ-S91G and OccJ-N202D were chemically synthesized; pET-28a); host or cells: E. coli BL21
Sequence (P0A4F8 21-276 S91G): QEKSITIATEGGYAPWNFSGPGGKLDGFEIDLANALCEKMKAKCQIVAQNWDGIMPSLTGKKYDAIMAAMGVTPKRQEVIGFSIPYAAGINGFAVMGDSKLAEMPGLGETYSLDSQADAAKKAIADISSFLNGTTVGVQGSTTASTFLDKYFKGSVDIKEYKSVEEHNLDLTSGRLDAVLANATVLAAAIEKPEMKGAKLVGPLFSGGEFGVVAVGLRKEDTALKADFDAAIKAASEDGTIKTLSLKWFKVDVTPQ
Assay: OccJ S91G ligand binding, fluorescence titration
Settings: intrinsic protein fluorescence titration; 20 °C; pH 8.0; read-out: K D (F)
pKd: −log10 of the molar value.
result_type: pKd

INSERT INTO measurements (smiles_str, value) VALUES
  ('C[C@@H](N[C@@H](CCCN=C(N)N)C(=O)O)C(=O)O', 4.52);

---

Target: OccJ WT (Agrobacterium tumefaciens, UniProt P0A4F8)
Construct: The mature PBP OccJ (256 aa without the signal peptide) expression plasmid was obtained by cloning the occJ gene lacking the first twenty residues; hexahistidine (C); made in house; host or cells: E. coli BL21
Assay: OccJ WT ligand binding, isothermal titration microcalorimetry
Settings: ITC, 20 °C
pKd: −log10 of the molar value.
Attribute: pKd
result_type: pKd

INSERT INTO assay_data (compound, result_type, value) VALUES
  ('N=C(N)NCCCC[C@H](NCC(=O)O)C(=O)O', 'pKd', 4.71),
  ('NC(N)=NCCC[C@H](NCC(=O)O)C(=O)O', 'pKd', 6.82),
  ('CC(N[C@@H](Cc1cnc[nH]1)C(=O)O)C(=O)O (stereo partly shown)', 'pKd', 3.49),
  ('NCCC[C@H](N)C(=O)O', 'pKd', 4.39);

---

Molecular target: NocT G97S (Agrobacterium fabrum, UniProt P35120, G97S)
Construct: Cloning of mature OccJ, NocT-G97S, OccJ-S91G, OccJ-N202D, LAO and LAO-Q122A; made in house; host or cells: E. coli BL21
Sequence (P35120 26-283 G97S): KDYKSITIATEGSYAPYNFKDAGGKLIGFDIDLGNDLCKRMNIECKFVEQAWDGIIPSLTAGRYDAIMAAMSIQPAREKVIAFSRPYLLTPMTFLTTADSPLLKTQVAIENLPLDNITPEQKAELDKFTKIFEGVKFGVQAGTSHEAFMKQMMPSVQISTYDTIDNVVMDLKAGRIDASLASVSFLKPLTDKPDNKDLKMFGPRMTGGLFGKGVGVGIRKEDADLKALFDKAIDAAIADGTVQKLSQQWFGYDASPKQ
Type: binding, Agrobacterium tumefaciens
Conditions: intrinsic protein fluorescence titration; 20 °C; pH 8.0; read-out: K D (F)
result_type: Kd (µM)

INSERT INTO assay_data (smiles_str, value) VALUES
  ('C[C@@H](N[C@@H](CCCN=C(N)N)C(=O)O)C(=O)O', 63.8);

---

Target: NocT WT (Agrobacterium fabrum, UniProt P35120)
Construct: Cloning of mature OccJ, NocT-G97S, OccJ-S91G, OccJ-N202D, LAO and LAO-Q122A; made in house
Sequence (P35120 26-283): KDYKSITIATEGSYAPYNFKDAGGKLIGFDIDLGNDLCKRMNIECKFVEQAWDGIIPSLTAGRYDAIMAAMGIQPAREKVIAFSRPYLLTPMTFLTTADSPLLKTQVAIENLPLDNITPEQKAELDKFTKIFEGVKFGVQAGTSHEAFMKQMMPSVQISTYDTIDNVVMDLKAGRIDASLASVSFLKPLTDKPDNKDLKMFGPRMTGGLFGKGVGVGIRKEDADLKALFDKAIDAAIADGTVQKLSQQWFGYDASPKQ
Format: binding, Agrobacterium tumefaciens
Conditions: ITC, 20 °C
Attribute: Enthalpy (ΔH)
result_type: Enthalpy (ΔH) (kcal/mol)

INSERT INTO assay_data (smiles_str, experimental_system, result_type, readout_unit, value) VALUES
  ('N=C(N)NCCCC[C@H](NCC(=O)O)C(=O)O', 'NocT WT (Agrobacterium fabrum, UniProt P35120)', 'Enthalpy (ΔH)', 'kcal/mol', -1.195),
  ('NCCC[C@H](NCC(=O)O)C(=O)O', 'NocT WT (Agrobacterium fabrum, UniProt P35120)', 'Enthalpy (ΔH)', 'kcal/mol', 0.62),
  ('NC(N)=NCCC[C@H](NCC(=O)O)C(=O)O', 'NocT WT (Agrobacterium fabrum, UniProt P35120)', 'Enthalpy (ΔH)', 'kcal/mol', 0.872),
  ('C[C@@H](N[C@@H](CCCN)C(=O)O)C(=O)O', 'NocT WT (Agrobacterium fabrum, UniProt P35120)', 'Enthalpy (ΔH)', 'kcal/mol', -3.658);
